# Test system: DU-145 prostate
# assay_procedure: NCI-60 one-dose screen, 48 h (100 = growth as untreated, 0 = no growth, -100 = all killed)
# study_conditions: 10 µM unless noted
# Procedure: Cells are grown in 96 well plates and exposed to the test compound for 48 hours. Compounds are tested at a single concentration, which is 10^-5 M for most compounds. The reported endpoint is percent growth (GI% or GIPRCNT), where numbers from 0 - 100% represent growth inhibition, and numbers from -100% - 0 represent cell death. For example, a value of 40 represents 60% growth inhibition. A value of 0 means no net growth occurred over the course of the experiment. […]
The panel holds about 83,000 compounds, 20% with a hit somewhere; the sample as a whole holds those more often.
The reader will find reported growth values listed item by item below.
The reply should contain only the number, in %.

Examples from the recorded data:
[Q] Recorded growth of `Cc1nn(-c2ccccc2)c2c1N=c1s/c(=C\c3ccc(C(F)(F)F)cc3)c(=O)n1CN2` , please.
[A] 117

[Q] Recorded growth of `COc1ccc(/C=C2\Oc3cc(OCCN4CCC(Cc5ccccc5)CC4)ccc3C2=O)cc1OC` , please.
[A] 82.5

[Q] Recorded growth of `COc1cccc(Cc2nn3cc(-c4ccccc4)nc3s2)c1` , please.
[A] 94.4

[Q] Recorded growth of `O=C(/C=C/c1sc(Cl)nc1Cl)c1ccc(F)cc1` , please.
[A] 92

[Q] Recorded growth of `CNCCCNc1nc2ccccc2c2c(=O)c3cc(OC)ccc3sc12` , please.
[A] 65.4

Next:
[Q] Recorded growth of `COc1ccc(C(=O)/C=C/c2sc(Cl)nc2Cl)cc1` , please.
[A] 61.9

[Q] Recorded growth of `COC(=O)Nc1ccc(-c2nc(-c3cccc(OC)c3)c(-c3ccnc(Br)c3)[nH]2)cc1` , please.
[A] 81.4

[Q] Recorded growth of `COc1ccc(-c2conc2-c2ccccc2)cc1` , please.
[A] 11.5

[Q] Recorded growth of `C=C1C(=O)O[C@H]2[C@H]1CC/C(COC(=O)NCCOCCOCC(=O)Nc1ccc(OC)c(C(N)=O)c1O)=C\CC[C@@]1(C)O[C@@H]21` , please.
[A] 76.9

[Q] Recorded growth of CCN1C(=O)N(CC)C2Nn3c(s/c(=C\c4ccc([N+](=O)[O-])cc4)c3=O)=NC21 (stereo not given) , please.
[A] 91.8

* * *

# Test system: KM12 colon
# assay_procedure: NCI-60 one-dose screen, 48 h
# study_conditions: 10 µM unless noted
# Procedure: Growth inhibition of the KM12 human tumor cell line is measured as a screen for anti-cancer activity. Cells are grown in 96 well plates and exposed to the test compound for 48 hours. Compounds are tested at a single concentration, which is 10^-5 M for most compounds. The reported endpoint is percent growth (GI% or GIPRCNT), where numbers from 0 - 100% represent growth inhibition, and numbers from -100% - 0 represent cell death. For example, a value of 40 represents 60% growth inhibition. […]
This is part of a sample that, as a whole, favours compounds with a hit. Of some 83,000 tested, about 20% had one in any assay. Calls of active or inactive are those of the source. Rule for the calls: active = growth percent below 10; inactive = the rest.
Thanks in advance; please answer with one of these: 1 (yes) (active), 0 (no) (inactive)

[Q] What call does the record list for `COc1ccc(C(=O)/C=C/c2sc(Cl)nc2Cl)cc1` ?
[A] 0 (no)

[Q] What call does the record list for `COc1ccc2sc3c(NCCCNCCO)nc4ccccc4c3c(=O)c2c1` ?
[A] 1 (yes)

[Q] What call does the record list for `COc1cccc(-c2nc(-c3ccc(NS(=O)(=O)c4ccccc4)cc3)[nH]c2-c2ccnc(Br)c2)c1` ?
[A] 1 (yes)

[Q] What call does the record list for `COc1ccc(OC)c(/C=C2\Oc3cc(OCCN4CCC(Cc5ccccc5)CC4)ccc3C2=O)c1` ?
[A] 0 (no)

[Q] What call does the record list for CCN1C(=O)N(CC)C2Nn3c(s/c(=C4\C(=O)N(CC(C)C)c5ccccc54)c3=O)=NC21 (stereo unspecified) ?
[A] 0 (no)

[Q] What call does the record list for `O=C(Nc1ccc(Cl)cc1F)c1ccccc1O` ?
[A] 0 (no)

[Q] What call does the record list for `Oc1ccc(C#CCOc2ccccc2)cc1CNCCN(Cc1ccccn1)Cc1ccccn1` ?
[A] 0 (no)

[Q] What call does the record list for `CCCCC[C@H](O)C/C=C1/C(=O)C=C[C@@H]1C/C=C\CCCC(=O)OC` ?
[A] 0 (no)

[Q] What call does the record list for `CS(=O)(=O)Nc1cc(-c2ccc3ncnc(Nc4cccc(Cl)c4F)c3c2)cnc1Cl` ?
[A] 0 (no)

[Q] What call does the record list for `COc1ccc(-c2nnc(COc3ccc(Cl)cc3Cl)o2)cc1OC` ?
[A] 0 (no)

* * *

# Test system: LOX IMVI melanoma
# assay_procedure: NCI-60 one-dose screen, 48 h
# study_conditions: 10 µM unless noted
About 83,000 compounds went through this panel and 20% of them were active in at least one assay; those are over-represented in the sample as a whole. Calls of active or inactive are those of the source. How the source made its calls: active means growth percent below 10; inactive means the rest.
Thanks in advance; please answer with one of these: t (active), f (inactive)

Worked set:
[Q] What call does the record list for C=C1C(=O)O[C@H]2[C@H]1CC/C(COC(=O)C(C)c1ccc(CC(C)C)cc1)=C\CC[C@@]1(C)O[C@@H]21 (stereo not given in full) ?
[A] t

[Q] What call does the record list for `NC(=O)C1(Nc2ccc(Br)cc2)CCCC1` ?
[A] f

[Q] What call does the record list for `Cc1c(C(=O)N[C@@H](Cc2ccccc2)C(=O)C(=O)NCc2ccc(F)cc2)[nH]c2ccccc2c1=O` ?
[A] f

[Q] What call does the record list for `Cc1ccc2c(-c3cc(-c4ccccc4)nc(N)c3C#N)cc(=O)oc2c1` ?
[A] f

[Q] What call does the record list for `Nc1ccc(Sc2ccc([N+](=O)[O-])c3nonc23)cc1` ?
[A] f

Next:
[Q] What call does the record list for `CCCCn1c(=O)c(-c2cc(-c3ccc(Cl)cc3)nc(-c3ccc(Cl)cc3)c2)cc2cc(C)ccc21` ?
[A] f

[Q] What call does the record list for C=C(C)C1CCC2(C)OC2C1 (stereo not given) ?
[A] f

[Q] What call does the record list for `CCc1nnc(NC(=O)c2nnn(-c3ccccc3)c2-c2ccco2)s1` ?
[A] f

[Q] What call does the record list for `Cc1ccc(-c2nc(N3CCN(CC(=O)Nc4ccc(Cl)cc4)CC3)c3ccccc3n2)cc1` ?
[A] f

[Q] What call does the record list for `CN1CCN(c2ccc(-c3cc4c(Nc5ccc(F)c(Cl)c5)ncnn4c3)cn2)CC1` ?
[A] f

[Q] What call does the record list for `COc1cc(CCC[P+](c2ccccc2)(c2ccccc2)c2ccccc2)c(OC)c2c1OCO2` ?
[A] f

[Q] What call does the record list for `COc1cc2cc(Oc3ccc(NC(=O)Nc4ccc(Cl)c(Cl)c4)cc3)c(C)nc2cc1OCCN1CCOCC1` ?
[A] f

[Q] What call does the record list for `COc1c(B(O)O)cc(F)cc1-c1nc2ccc3[nH]ncc3c2c2c1CCCC2` ?
[A] t

[Q] What call does the record list for `CCCCn1c(-c2ccc(-c3nc(-c4ccc(Cl)cc4)no3)cc2)nc(-c2ccccc2)c1-c1ccccc1` ?
[A] f

[Q] What call does the record list for `Cc1cc2nc3cc(C)c(N)cc3[n+](-c3ccccc3)c2cc1N` ?
[A] f

[Q] What call does the record list for `COc1cc2cc(Oc3ccc(NC(=O)Nc4cccc(C(F)(F)F)c4)cc3)c(C)nc2cc1OCCN1CCOCC1` ?
[A] f

[Q] What call does the record list for `CC(C)c1cc(C(C)C)c(S(=O)(=O)Oc2ccc(NC(=O)c3ccc(Cl)cc3)cc2)c(C(C)C)c1` ?
[A] f

[Q] What call does the record list for `Cc1nc2ccccc2c(/C=C/c2ccc(Cl)cc2)c1C(=O)/C=C/c1ccc(C(F)(F)F)cc1` ?
[A] t

[Q] What call does the record list for `COc1ccc2sc3c(NCCO)nc4ccccc4c3c(=O)c2c1` ?
[A] f

[Q] What call does the record list for `COc1cc(/C=C2\C(=O)Nc3ccc(Br)cc32)cc(OC)c1OC` ?
[A] f

* * *

# System: HCT-15 colon
# assay_procedure: NCI-60 one-dose screen, 48 h (100 = growth as untreated, 0 = no growth, -100 = all killed)
# study_conditions: 10 µM unless noted
About 83,000 compounds went through this panel and 20% of them were active in at least one assay; those are over-represented in the sample as a whole. The source made the active and inactive calls. Rule for the calls: active = growth percent below 10; inactive = the rest.
readout_type: growth

[Q] Recorded growth of `O=CN(SSN(C=O)C1CCCCC1)C1CCCCC1` , please.
[A] 109% (inactive)

[Q] Recorded growth of C=C(C)C1CCC2(C)OC2C1 (stereo not given) , please.
[A] 112% (inactive)

[Q] Recorded growth of `CC(C)c1cc(C(C)C)c(S(=O)(=O)Oc2ccc(NC(=O)c3ccc(Cl)cc3)cc2)c(C(C)C)c1` , please.
[A] 20.2% (inactive)

[Q] Recorded growth of `Cc1nc2nc(SCC(=O)O)[nH]c2c(=O)[nH]1` , please.
[A] 103% (inactive)

[Q] Recorded growth of `O=C(Nn1c(NCC(=O)N2c3ccccc3Sc3ccccc32)nnc1-c1ccc(O)cc1)c1ccccc1` , please.
[A] 98% (inactive)

[Q] Recorded growth of `COc1cc2cc(Oc3ccc(NC(=O)Nc4ccc(F)c(C(F)(F)F)c4)cc3)c(C)nc2cc1OCCN1CCOCC1` , please.
[A] 13.6% (inactive)

[Q] Recorded growth of `COc1ccc2nc(NCCCNCCO)c3sc4ccc(F)cc4c(=O)c3c2c1` , please.
[A] -47.9% (active)

[Q] Recorded growth of CCC12CCC[N+]3([O-])CCC4(C(=Nc5ccccc54)C(O)(C(=O)OC)C1)C23 (stereo not given) , please.
[A] 108% (inactive)

[Q] Recorded growth of `COc1cc2cc(Oc3ccc(NC(=O)Nc4cc(C(F)(F)F)cc(C(F)(F)F)c4)cc3)c(C)nc2cc1OCCN1CCOCC1` , please.
[A] 13.4% (inactive)

[Q] Recorded growth of `CCCCC[C@H](O)C/C=C1/C(=O)C=C[C@@H]1C/C=C\CCCC(=O)OC` , please.
[A] 20.8% (inactive)

Next:
[Q] Recorded growth of `CCCCCCCCCCCCCCCCCCOc1ccc(CC(=O)OCC[N+]2(C)CCCCC2)cc1` , please.
[A] 97.5% (inactive)

[Q] Recorded growth of `NC(=O)C1(Nc2ccc(Br)cc2)CCCC1` , please.
[A] 107% (inactive)

[Q] Recorded growth of CC1CN(C2CCCCC2)C(=S)N(c2ccccc2)C1=O (stereo not given) , please.
[A] 103% (inactive)

[Q] Recorded growth of `COc1ccc(C(=O)COC(=O)[C@H](C[Se][Se]C[C@H](NC(=O)c2ccc(Br)cc2F)C(=O)OCC(=O)c2ccc(OC)cc2)NC(=O)c2ccc(Br)cc2F)cc1` , please.
[A] -30.7% (active)

[Q] Recorded growth of `O=C(Cc1ccc(F)c(Cl)c1)Nc1cc(C2(C(F)(F)F)CC2)nn1CC1CCCCC1` , please.
[A] 5.75% (active)

[Q] Recorded growth of `Cc1nc2ccccc2c(/C=C/c2ccc(Cl)cc2)c1C(=O)/C=C/c1ccc(C(F)(F)F)cc1` , please.
[A] -31.6% (active)

[Q] Recorded growth of `CCc1ccccc1-n1c(N)c(C#N)c(-c2ccc(Cl)cc2)c(C#N)c1=O` , please.
[A] 108% (inactive)
